Please consider the recorded Kd for PAS domain-containing serine/threonine-protein kinase (Homo sapiens, UniProt Q96RG2) in what follows.
Calls of active or inactive are those of the source.

Lookup: State recorded Kd with PAS domain-containing serine/threonine-protein kinase (Homo sapiens, UniProt Q96RG2), entry CC(C)c1cc(CNc2nc(Nc3cc(C4CC4)[nH]n3)cc(N3CCN(C)CC3)n2)on1 [XL-228] , no comment.
Sequence (Q96RG2 whole entry, the tested form may be a part): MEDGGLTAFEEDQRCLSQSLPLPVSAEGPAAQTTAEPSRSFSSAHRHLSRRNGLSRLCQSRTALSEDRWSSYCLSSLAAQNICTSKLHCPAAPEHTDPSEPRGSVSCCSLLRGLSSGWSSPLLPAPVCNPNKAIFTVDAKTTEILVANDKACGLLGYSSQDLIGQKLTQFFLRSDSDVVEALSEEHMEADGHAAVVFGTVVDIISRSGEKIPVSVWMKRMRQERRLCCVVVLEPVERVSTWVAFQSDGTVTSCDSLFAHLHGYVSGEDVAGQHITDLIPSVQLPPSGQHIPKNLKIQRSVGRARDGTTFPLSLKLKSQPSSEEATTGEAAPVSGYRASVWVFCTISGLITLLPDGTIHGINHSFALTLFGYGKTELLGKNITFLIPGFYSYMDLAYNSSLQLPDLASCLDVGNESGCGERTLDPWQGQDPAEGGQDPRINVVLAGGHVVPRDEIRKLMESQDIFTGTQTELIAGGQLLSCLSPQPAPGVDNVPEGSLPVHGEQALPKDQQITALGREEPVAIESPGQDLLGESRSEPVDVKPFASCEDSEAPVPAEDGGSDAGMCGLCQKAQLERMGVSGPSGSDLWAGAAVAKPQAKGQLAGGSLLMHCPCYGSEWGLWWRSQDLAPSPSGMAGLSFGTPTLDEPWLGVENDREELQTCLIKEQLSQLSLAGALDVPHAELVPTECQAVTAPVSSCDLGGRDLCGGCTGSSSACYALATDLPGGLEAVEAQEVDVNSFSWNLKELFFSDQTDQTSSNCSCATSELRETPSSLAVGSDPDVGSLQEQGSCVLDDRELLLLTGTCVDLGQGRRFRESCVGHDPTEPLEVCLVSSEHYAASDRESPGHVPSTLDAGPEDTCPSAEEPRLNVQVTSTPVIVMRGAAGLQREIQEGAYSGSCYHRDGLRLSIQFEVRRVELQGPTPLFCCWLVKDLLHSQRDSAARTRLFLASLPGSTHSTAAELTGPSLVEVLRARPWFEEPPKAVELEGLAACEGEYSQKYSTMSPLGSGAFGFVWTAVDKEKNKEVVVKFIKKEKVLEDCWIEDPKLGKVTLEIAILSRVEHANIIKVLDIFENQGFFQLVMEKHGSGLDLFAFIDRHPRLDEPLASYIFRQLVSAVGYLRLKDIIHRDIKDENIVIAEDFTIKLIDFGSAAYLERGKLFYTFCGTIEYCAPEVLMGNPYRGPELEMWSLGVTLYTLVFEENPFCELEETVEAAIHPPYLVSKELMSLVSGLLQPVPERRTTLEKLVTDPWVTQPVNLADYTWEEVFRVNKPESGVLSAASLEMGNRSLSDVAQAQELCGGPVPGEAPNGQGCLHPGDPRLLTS
Found: > 30 µM (inactive)

Lookup: State recorded Kd with PAS domain-containing serine/threonine-protein kinase (Homo sapiens, UniProt Q96RG2), entry NC(=O)c1c(OCc2c(F)cc(Br)cc2F)nsc1NC(=O)NCCCCN1CCCC1 [OSI-632] , no comment.
Found: > 30 µM (inactive)

Lookup: State recorded Kd with PAS domain-containing serine/threonine-protein kinase (Homo sapiens, UniProt Q96RG2), entry COc1cc(Nc2ncc3c(n2)-c2ccc(Cl)cc2C(c2c(F)cccc2OC)=NC3)ccc1C(=O)O [ALISERTIB] , no comment.
Found: > 30 µM (inactive)
